Each record here notes measured apparent KD of MS2 coat protein.
Tested on: MS2 coat protein
Assay: apparent KD of MS2 coat protein; designed switch direction (-1 OFF switch, 1 ON switch): 1; higher = weaker reporter binding
Settings: input ligand: FMN 200 uM
Write down the numeric answer in nM and omit the unit.

Residue codes	Unit abbreviation	apparent KD of MS2 coat protein
UUCUCAUUUACAUGAGGAUCACCCAUGUUUUUUUGUAGGAAAUAGGAUAUAGGUCUCUCGUUUUACUAGAAGGAUUUCCUUAUU [JR_SSNG3_Sub090] (Eterna round: R96, puzzle: Same State NG 3)	nM	51.5
AUACUGUACCGAGGAUAUCCAUUUUUCUAACAUGAGGAUCACCCAUGUGAAGGGAUUGAGUUGUAGGAGAAGGCGGUAUAGUAU [JR_SSNG2_Sub062] (Eterna round: R96, puzzle: Same State NG 2)	nM	14.8

Attention now shifts to the item below.
Request: Which apparent KD of MS2 coat protein is reported for this sequence? GUUAGGAAUCUAGCAUACAUGAGGAUCACCCAUGUUAGUGGGAAGGAUAUGGUACAGAAACUGUACCAGAAGGUCUUAUUGUUU [Omei SS(NG) 3 AV12] (Eterna round: R96, puzzle: Same State NG 3)
Response: 210

###

Reported apparent KD of K4 kissing-loop reporter by item:
System: K4 kissing-loop RNA reporter
Assay: apparent KD of K4 kissing-loop reporter; higher = weaker reporter binding
Conditions: Eterna round: R107; input ligand: arginine 13.2 mM
Respond numerically; units are µM and should not be typed.

Residue codes	Tgt	apparent KD of K4 kissing-loop reporter [µM]
AGGGAUGAUGGAUAAAUAAACAAAAGGGAUACCAGUCAAAUAAUAGGCCCUUGGCAGCUUUAGAUCAGUGAUGUUGAAGAUAUUG [Theophylline A Same State; Euphoria Solution]	K4 kissing-loop RNA reporter	0.127

Request: Find the recorded apparent KD of K4 kissing-loop reporter belonging to AUUCUUAUAAUAACACUAUAUACAACUGAAGGAGCGACAAUAAAGUCAGGUAGGUCGCAGAAUAAAUGAGUGAUGUUCAUUUUUA [JR_ExcArginiA_Sub011] and report it.
Response: 0.153

Request: And for UGUCAUUGGUCUGAUACCAGUCCCUUGGCAGCCAAAUGGAGUGAUGUUCCAAGGAUACCAGACCCUUGGCAGCAGACCGAUGACU [TheoBS 26 #DoubleAptamer #SwitchBubble] ?
Response: 0.397

Request: Now try AUUUAAUUAACUGAUACCAGACUUUUUGUUUUGUUUAUUACUAGUGAUGUUAGUGUUUCUGUCCCUUGGCAGCAGAAUCUACUUA [JR_ExcTheophyB_Sub019] .
Response: 0.297

Request: Try the sequence GGGAAGGAGUGAUGUUUCUUCUGAAUUUCUAAGGAUAUACGAUGCGGUAGAAGGUAGAUGCCUUGCAGGAAAUGUUCACCACGCG [theeternabot_exclusion_KL_FMN_A_2]
Response: 0.146

Request: Record: CCAUCGCUAUUCGAUACCAGUCUACGUAGGAAACUACGUCUGCAAAGGAGUGAUGUUCCAGACCCUUGGCAGCGAAUAGUGAUGG [Theophylline B K4 5]
Response: 0.689

Request: AUAGGAGUGAUGUUCCUUAGUUUCUCCGAUACCAGUAUGGAAACAUACCCUUGGCAGCGGGAAACCGCUGAUUAGGAAACUAGUC [Theophylline A K4 7] , same question.
Response: 0.271

Request: What do you have for GUUAUGGACCUGGAUACCAGCUGGUACAAGGUCGGUCUACAUGAGUGAUGUUCAUGUGUCAGCCCUUGGCAGCCAGCAACCGGCA [KL-XTheo-B10] ?
Response: 0.0971

Request: // same read-out, input: AGUGCACUGUCAGGAUAUGUACAGUGAUGUUGUGUAUGUCAGCAAGUCAAAGACUUGCUCUUCUGUGCAGAAGGGACUGUGUACA [Omei KL FMN B Exc A v5]
Response: 0.464

Request: Now the sequence UAGUAUAAUCUGUCGUUUACAAUAUUUAGUCAGGAUAUCGUAUAUUCGAGAAGGGACACUAUCUAGUGAUGUUAGAUAUUUCUUU [JR_ExcFMNA_Sub013]
Response: 0.0782

Request: And the next one, GGCAGUGAUGUUGCCAGUGGCAGAUUGGAAGGAGCGUGGUGAGACACAGGUAGGUCGCUAAUUGAAGUUGCUGUCACUAAAAUGC [whbob_Ex_Arginine_A_2t131] ?
Response: 0.299

###

Test system: MS2 coat protein
Assay: apparent KD of MS2 coat protein; higher = weaker reporter binding
Conditions: Eterna round: R107; input ligand: tryptophan 2.4 mM
Threshold check on apparent KD of MS2 coat protein: at or above 50 nM gives 1, strictly below gives -1.

Would you please look over these solved cases?
Residue codes	Tgt	Class assignment
AAAAUAAAUAAAACACGUAACAUGAAGGAUACCAGACCGGAAACGGUCCCUUGGCAGCCUCUACAUGAGGAUCACCCAUGUCGUG [Mat - Same State Theophlline A - Mod of Eli - D18]	MS2 coat protein	1
GGGUACAUCGCGGCCGCCACUCGUGUAAAUACAUGAGGAUCACCCAUGUCGAUGGAGACAUCGGAGAGGACCGGGUGAUGUACCG	MS2 coat protein	-1
AGAGUCUAGUCGGCCGCCACUCAUGUCCUAAGGACAUGAGGAUCACCCAUGUACCAAAGGUACAUGAGGACCGGGACUGGACUCA [Omei Tryp B SS C v1]	MS2 coat protein	-1

Request: Confirm if apparent KD of MS2 coat protein reported for the sequence AUCGUACCUGAUGAUACCAGCAUGUGAUCAUAACAUGAGGAUCACCCAUGUAAUCAGUGAUGCCCUUGGCAGCAUAGUCGAUACA [Same State - Theophylline B (Freestyle 6)] is 50 nM or above.
Response: 1

###

Documented apparent KD of K4 kissing-loop reporter across a set of sequences
System: K4 kissing-loop RNA reporter
Assay: apparent KD of K4 kissing-loop reporter; higher = weaker reporter binding
Settings: Eterna round: R107; input ligand: none
Field: numeric (nM). Do not append units.

Residue codes	apparent KD of K4 kissing-loop reporter [nM]
UGUGAACAAAAGUAGAGUGGACCACUAUAGCGAGGACCGGUACGGCCGCCACUCGUAUAUAAAUUCAGUGAUGUUGAAAAGAGCU [Exclusion Tryptophan A GF1]	215
AAGUGUGUGGCGGCCGCCACUAGAAUCCAGUGAUGUUGGAGAUAUCACGUAAGUGAUAUCCAACAUAGGACCGGGCCAUAUAGAA [Same State - Tryptophan B (Freestyle 12)]	80.3
CAGAACUUAUAUAGAAACUAUAUAAGAGAUACCAGUCAAAUUAAAGACCCUUGGCAGCUCAGGCGAGUGAUGUUCGCAGGCUAAC [Astros-Gfrank-modulation#1]	102
GCGCGUCAUGUCAGCGGUGACACUGUCGAUACCAGUGCCGGAAGGCGCCCUUGGCAGCGACGUGCUGGAGUGAUGUUCCAGCGUU [#2 Exclusion - Theophylline A Attempt #28 (HarryS)]	151

Request: Missing value: apparent KD of K4 kissing-loop reporter, K4 kissing-loop RNA reporter, entry GGAAGAAGUGGUGUUGAUUAAGAAGCGGAAGGAGCGCCGAAGAAGGCAGGUAGGUCGCCGAAAUAUAGUGAUGUUAUAUAAAAGG [ExArg.A] . Fill in?
Response: 229

Request: Proceed to GCCGUACGCAUGGAUACCAGUUGCGAAGUGAUGUUUCGGGCGAUCAAAGGAUCGCCCUACAACCCUUGGCAGCCAUGCGUACGGC
Response: 122

###

Tested on: K4 kissing-loop RNA reporter;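 further: bound reporter read as fluorescence of individual clusters on recovered sequencing chips by microscopy, with normalized cluster intensities fitted with a binding model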
Experiment: apparent KD of K4 kissing-loop reporter; higher = weaker reporter binding
Details: Eterna round: R107; input ligand: arginine 13.2 mM
Label label 1 when apparent KD of K4 kissing-loop reporter is at or above 300 nM; otherwise label label 0.

Solved cases below.
Residue codes	Class assignment
GUGGCACGAAAGUGCCACGCAUCCUCUCCCUAGGAUAUCUGGAAACAGAGAAGGAGGUCAUGAGUGAUGUUCAUCCAGAGGAUGC	label 1
UGGAGUUGACGAAAAGUCAACUCCUGAGAUACCAGUGACGAAAGUCACCCUUGGCAGCUCACUCCCAGUGAUGUUGGUUCAUAAG [#04 K4 Theophylline A Same State]	label 1
UUUGUAUAGGGAAGGAGCGUGAAUGAUAAUGAAUAUAGUGAUGUUAUAUAUAAGAAAGAAUCACAGGUAGGUCGCCCGGAGGAGG [SSArgB.J]	label 1
GGAGGGAUCUCGGCCGCCACUCGUAAGAAAUGGGCCUCAGGGAUAUAGUGAUGUUAUGUAAAGAAGAGGACCGGGAGAAAGAAGG [ExTryptoB.Dd]	label 0

Request: Has AAGUGUCAUUAGACACAGACUACAAUACACUAGGAUAUGCUGAUAAGCAGAAGGAGUGAUGUUCCUUUCAAGUAGUCAAUUAAAU [FmnAX 21 Mat Inspired #SwitchBubble #StaticStem #K4Late] a recorded apparent KD of K4 kissing-loop reporter greater than or equal to 300 nM?
Response: label 0
